System: ZR-75-1
Test: drug sensitivity score (DSS) (DSS (dimensionless)); higher = more sensitive; extreme values may be limits of the assay
Details: 4-OH-tamoxifen in medium 0 µM; 72 h
Structures can show the parent of a compound that is named as a salt.
recordedMetric: drug sensitivity score

{"molecule": "Cn1nnc2c(C(N)=O)ncn2c1=O [Temozolomide]", "recordedMetric": "drug sensitivity score", "dataValue": 0.0165}
{"molecule": "CC[C@H](Nc1ncnc2[nH]cnc12)c1nc2cccc(F)c2c(=O)n1-c1ccccc1 [CAL-101]", "recordedMetric": "drug sensitivity score", "dataValue": 4.36}
{"molecule": "CC(=O)Nc1ccc(C(=O)Nc2ccccc2N)cc1 [Tacedinaline (CI-994)]", "recordedMetric": "drug sensitivity score", "dataValue": 0}
{"molecule": "Cn1c(CCCC(=O)O)nc2cc(N(CCCl)CCCl)ccc21 [Bendamustine (hydrochloride hydrate)]", "recordedMetric": "drug sensitivity score", "dataValue": 0}
{"molecule": "O=C(c1ccc(OCCN2CCCCC2)cc1)c1c(-c2ccc(O)cc2)sc2cc(O)ccc12 [Raloxifene HCl]", "recordedMetric": "drug sensitivity score", "dataValue": 0.0043}
{"molecule": "C=CC(=O)N1CCC[C@@H](n2nc(-c3ccc(Oc4ccccc4)cc3)c3c(N)ncnc32)C1", "recordedMetric": "drug sensitivity score", "dataValue": 0}
{"molecule": "C=CCN(/C=C1/C(=O)O[C@H](COC)[C@@]2(C)C1=C(O)C(=O)C1=C2[C@H](OC(C)=O)C[C@]2(C)C(=O)CC[C@@H]12)CC=C [Sonolisib (PX-866)]", "recordedMetric": "drug sensitivity score", "dataValue": 0}
{"molecule": "CNC(=O)c1cc(Oc2ccc(NC(=O)Nc3ccc(Cl)c(C(F)(F)F)c3)c(F)c2)ccn1 [Regorafenib (BAY 73-4506)]", "recordedMetric": "drug sensitivity score", "dataValue": 0.232}
{"molecule": "Cc1ccc(NC(=O)c2ccc(CN3CCN(C)CC3)cc2)cc1Nc1nc(-c2cccnc2)cs1 [Masitinib]", "recordedMetric": "drug sensitivity score", "dataValue": 0}
{"molecule": "CO[C@H](C(=O)[C@@H](O)[C@@H](C)O)[C@@H]1Cc2cc3cc(O[C@H]4C[C@@H](O[C@@H]5C[C@@H](O)[C@H](O)[C@@H](C)O5)[C@H](O)[C@@H](C)O4)c(C)c(O)c3c(O)c2C(=O)[C@H]1O[C@H]1C[C@@H](O[C@@H]2C[C@@H](O)[C@@H](O[C@@H]3C[C@](C)(O)[C@H](O)[C@@H](C)O3)[C@@H](C)O2)[C@H](O)[C@@H](C)O1 [Plicamycin (Mithramycin A)]", "recordedMetric": "drug sensitivity score", "dataValue": 21.5}
{"molecule": "Nc1nc2[nH]cc(CCc3ccc(C(=O)N[C@@H](CCC(=O)O)C(=O)O)cc3)c2c(=O)[nH]1 [Pemetrexed]", "recordedMetric": "drug sensitivity score", "dataValue": 0}
{"molecule": "O=NN(CCCl)C(=O)NC1CCCCC1 [Lomustine]", "recordedMetric": "drug sensitivity score", "dataValue": 0}
{"molecule": "COc1cc2ncnc(Nc3ccc(F)c(Cl)c3)c2cc1OCCCN1CCOCC1 [Gefitinib]", "recordedMetric": "drug sensitivity score", "dataValue": 0.0359}
{"molecule": "CN1CCN(c2nc(C3=C(c4c[nH]c5ccccc45)C(=O)NC3=O)c3ccccc3n2)CC1 [Sotrastaurin]", "recordedMetric": "drug sensitivity score", "dataValue": 0}
{"molecule": "O=NN(CCCl)C(=O)NCCCl [Carmustine]", "recordedMetric": "drug sensitivity score", "dataValue": 0}

Reference source: the supplement of paper PMC4932681
